Target sequence: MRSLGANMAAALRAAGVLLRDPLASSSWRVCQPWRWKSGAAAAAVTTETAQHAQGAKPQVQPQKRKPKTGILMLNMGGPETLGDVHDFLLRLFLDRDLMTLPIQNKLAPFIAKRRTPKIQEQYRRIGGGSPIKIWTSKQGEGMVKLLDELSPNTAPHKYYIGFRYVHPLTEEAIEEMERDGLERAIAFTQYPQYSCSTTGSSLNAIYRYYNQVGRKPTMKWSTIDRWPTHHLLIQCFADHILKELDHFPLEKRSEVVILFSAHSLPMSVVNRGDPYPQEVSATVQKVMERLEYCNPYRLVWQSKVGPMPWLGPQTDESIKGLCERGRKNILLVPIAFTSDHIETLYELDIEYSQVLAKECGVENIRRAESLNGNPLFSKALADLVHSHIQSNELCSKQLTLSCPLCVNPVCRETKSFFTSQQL
Activity calls are given as the source filed them.
Outcomes: Y for active, N for inactive

>>> category("O=c1[nH]c([C@@H]2CCCN2)nc2c1oc1ccc(Cl)cc12")
"N"
>>> category("COc1cc2nccc(Oc3ccc(NC(=O)C4(C(=O)Nc5ccc(F)cc5)CC4)cc3)c2cc1OC [CABOZANTINIB]")
"Y"
>>> category("COc1cc2c(N3CCN(C(=O)Nc4ccc(OC(C)C)cc4)CC3)ncnc2cc1OCCCN1CCCCC1")
"N"
>>> category("COc1cc2c(Oc3ccc4[nH]c(C)cc4c3F)ncnc2cc1OCCCN1CCCC1")
"N"
>>> category("C=CC(=O)Nc1cccc(Nc2nc(Nc3ccc(N4CCN(C(C)=O)CC4)cc3OC)ncc2C(F)(F)F)c1")
"N"
>>> category("C#Cc1cccc(Nc2ncnc3cc4c(cc23)OCCOCCOCCO4)c1")
"N"
>>> category("Cn1c(=O)n(-c2ccc(C(C)(C)C#N)cc2)c2c3cc(-c4cnc5ccccc5c4)ccc3ncc21")
"N"
>>> category("COc1cccc2cc(-c3nc([C@H]4CC[C@H](C(=O)O)CC4)n4ncnc(N)c34)[nH]c12")
"Y"
